Record form. Attribute: normalized RNA/DNA level without ligand (log10). Fill in for each entry.
B1: library; a variant is named by its letters at N, in order (parent)
chain: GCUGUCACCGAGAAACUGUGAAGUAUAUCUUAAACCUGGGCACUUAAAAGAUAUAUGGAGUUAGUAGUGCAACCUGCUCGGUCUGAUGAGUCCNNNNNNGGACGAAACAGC

# Variants of: B1
# Protocol text: normalized RNA/DNA level without ligand (relative to sTRSVctl = 100) (log10 (% of sTRSVctl)); HEK293T; ligand: cyclic di-GMP (c-di-GMP-II aptamer); higher = less ribozyme self-cleavage, higher mRNA level
# Assay conditions: reporter: mCherry (pCS4076), ligand present: no

Mutant name | Result
UGUUCC | 1.84
UGGAUA | 1.65
ACUGUC | 1.63
UGACAC | 1.7
GUGCCA | 1.78
AAAGUG | 1.52
CUUCUC | 1.77
GUACUU | 1.7

Hey, can you go through the list below and give me normalized RNA/DNA level without ligand (log10) for every item?
1. ACCGCA
2. CUAUCA
3. AGCCCU
4. GACCUU
5. UUUAGU
6. GUCCAA

Given back:
[1.67, 1.54, 1.77, 1.69, 1.73, 1.57]

Hey, can you go through the list below and give me normalized RNA/DNA level without ligand (log10) for every item?
1. AAGGGG
2. UUCGGC
3. CCCGUA
4. CUUCCC
5. UCUGCU
6. UAUGCC

Given back:
1: 1.47; 2: 1.81; 3: 1.55; 4: 1.8; 5: 1.79; 6: 1.81

Hey, can you go through the list below and give me normalized RNA/DNA level without ligand (log10) for every item?
1. ACGUGA
2. AUACUC
3. GCAGCU
4. AGUUUG
5. AAUAGG
6. UUUUAC

Given back:
1: 1.33; 2: 1.74; 3: 1.65; 4: 1.65; 5: 1.5; 6: 1.74

Hey, can you go through the list below and give me normalized RNA/DNA level without ligand (log10) for every item?
1. UCCAUU
2. GUCGGU
3. GAGCCG
4. CGUAGU
5. CGCACG

Given back:
[1.63, 1.67, 1.82, 1.69, 1.75]

Hey, can you go through the list below and give me normalized RNA/DNA level without ligand (log10) for every item?
1. UCACAC
2. CGAUCC
3. CGGAUU
4. CAAACU
5. UGUACU

Given back:
[1.7, 1.82, 1.4, 1.54, 1.76]

Asked: Sample GGAAAA — what was its normalized RNA/DNA level without ligand (log10)?
Given back: 1.3
